Value source: PubChem BioAssay AID1159580

Entries annotated with measured normalized growth
# procedure-details: chemical genetic growth profiling, strain panel (AID 1159580);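 note: tested at 20 µM; growth read once vehicle control cultures reached saturation at 30 °C; 1 = growth at the plate median or of vehicle wells; lower values mean less growth of the strain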
# setup-conditions: S. cerevisiae deletion strains, growth OD, locus YNL197C, strain WHI3, stronger effect = lower value
The campaign covered roughly 5,500 compounds. About 2,000 (36%) were called active. Not shown: some 18% with an inconclusive outcome. The list shows a part of the results.
measurement-type: normalized growth

compound: O=c1[nH]c2ccccc2n1CCCN1CCC(n2c(=O)[nH]c3cc(Cl)ccc32)CC1
measurement-type: normalized growth
measured: 1.02
//
compound: CC(=O)SC1CC2=CC(=O)CC[C@]2(C)C2CC[C@@]3(C)C(CC[C@@]34CCC(=O)O4)C12 (stereo partly specified)
measurement-type: normalized growth
measured: 0.999
//
compound: CC(=O)[C@H]1CC[C@H]2[C@@H]3CC[C@H]4C[C@H](O)CC[C@]4(C)[C@H]3C(=O)C[C@]12C
measurement-type: normalized growth
measured: 0.994
//
compound: CNCCNS(=O)(=O)c1cccc2cnccc12
measurement-type: normalized growth
measured: 1.04
//
compound: CCCCN1CCC(n2c(=O)[nH]c3ccccc32)CC1
measurement-type: normalized growth
measured: 1.03
//
compound: Oc1ccc(C2CNCc3sccc32)cc1O (stereo unspecified)
measurement-type: normalized growth
measured: 0.995
//
compound: O=C(O)CNC(=O)C(CS)Cc1ccccc1 (stereo unspecified)
measurement-type: normalized growth
measured: 0.967
//
compound: COc1ccc2[nH]c(I)c(CCNC(C)=O)c2c1
measurement-type: normalized growth
measured: 1.01
//
compound: Cn1cnc2c(NC3CCCC3)ncnc21
measurement-type: normalized growth
measured: 1
//
compound: O=C(OC1CCN(CCCl)CC1)C(c1ccccc1)c1ccccc1
measurement-type: normalized growth
measured: 1.03
//
compound: O=c1[nH]c2ccccc2n1C1CCN(CCCC(c2ccc(F)cc2)c2ccc(F)cc2)CC1
measurement-type: normalized growth
measured: 1.1

----------
# procedure-details: chemical genetic growth profiling, strain panel (AID 1159580);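 note: tested at 20 µM; growth read once vehicle control cultures reached saturation at 30 °C; 1 = growth at the plate median or of vehicle wells; lower values mean less growth of the strain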
# setup-conditions: S. cerevisiae deletion strains, growth OD, locus YJR075W, strain HOC1, stronger effect = lower value
Screen size: about 5,500 compounds; about 2,000 (36%) were called active. Another 18% or so got no clear call; they are omitted. The list shows a part of the results.
Form field: normalized growth (one value per entry).

compound: COc1cccc(NC(=S)NCc2ccco2)c1
normalized growth: 1
--
compound: S=C(NCc1ccco1)Nc1ccc(Oc2ccc(Cl)cc2)cc1
normalized growth: 0.95
--
compound: N#C/C(=C\c1ccc(O)cc1)C(=O)O
normalized growth: 0.979
--
compound: CC(NC(=S)Nc1ccc(Oc2ccc(Cl)cc2)cc1)c1ccccc1 (stereo unspecified)
normalized growth: 1.01
--
compound: CCC(=O)Oc1ccc(NC(=S)NCCCO)cc1
normalized growth: 1.01
--
compound: CCCCC(=O)N(Cc1ccc(-c2ccccc2-c2nn[nH]n2)cc1)[C@H](C(=O)O)C(C)C
normalized growth: 1

----------
# procedure-details: chemical genetic growth profiling, strain panel (AID 1159580);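 note: tested at 20 µM; growth read once vehicle control cultures reached saturation at 30 °C; 1 = growth at the plate median or of vehicle wells; lower values mean less growth of the strain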
# setup-conditions: S. cerevisiae deletion strains, growth OD, locus YJL115W, strain asf1, stronger effect = lower value
About 2,000 (36%) of roughly 5,500 compounds were called active. Another 18% or so got no clear call; they are omitted. The list shows a part of the results.
measurement-type: normalized growth

compound: CNC(=O)CSP(=S)(OC)OC
measured: 1.01

compound: NCCS
measured: 0.966

compound: CC(=O)N[C@@H](CC(=O)O)C(=O)O
measured: 1

compound: O=c1[nH]c2ccccc2n1C1CCN(CCCC(c2ccc(F)cc2)c2ccc(F)cc2)CC1
measured: 1.02

compound: CCOC(=O)C1=C(C)NC(C)=C(C(=O)OC)C1c1cccc([N+](=O)[O-])c1 (stereo not given)
measured: 1.02

compound: C[N+]1(C)C2CC[C@H]1CC(OC(=O)C(O)c1ccccc1)C2 (stereo not given in full)
measured: 0.987

compound: CCS(=O)(=O)CCn1c([N+](=O)[O-])cnc1C
measured: 0.98

compound: CC(=O)Oc1ccc2c(c1)CCC1C2CC[C@@]2(C)C1CC[C@@H]2OC(C)=O (stereo not given in full)
measured: 0.997

compound: COc1ccc2[nH]cc(CCNC(C)=O)c2c1
measured: 0.969

compound: CSCCC(NC=O)C(=O)NC(CC(C)C)C(=O)NC(Cc1ccccc1)C(=O)O (stereo not given)
measured: 1.01

compound: C[C@]12CCC3C(CC[C@H]4CC(=O)CC[C@]34C)C1CCC2=O (stereo not given in full)
measured: 1.01

compound: O=C1c2ccccc2C(=O)c2c(O)c(O)cc(O)c21
measured: 0.431

compound: Cn1nnnc1SCC1=C(C(=O)O)N2C(=O)C(NC(=O)C(OC=O)c3ccccc3)C2SC1 (stereo not given)
measured: 0.985

compound: CC(C)CCCC(C)[C@H]1CCC2C3CC[C@H]4CC(=O)CC[C@]4(C)C3CC[C@@]21C (stereo not given in full)
measured: 0.971

compound: CC(C)=CCC/C(C)=C/COc1ccc2ccc(=O)oc2c1
measured: 1

compound: O=c1n(CCCN2CCN(c3cccc(Cl)c3)CC2)nc2ccccn12
measured: 0.978

compound: O=C(CCCN1CC=C(n2c(=O)[nH]c3ccccc32)CC1)c1ccc(F)cc1
measured: 0.975

compound: COc1cc(OC)c2c(c1Cl)OC1(C2=O)C(O)=CC(=O)CC1C (stereo not given)
measured: 1

compound: CC(C)=CCOc1c2occc2cc2ccc(=O)oc12
measured: 0.922

compound: O=C1c2ccccc2C(=O)c2c1ccc(O)c2O
measured: 0.644

compound: CCOc1ccc(Cc2nccc3cc(OCC)c(OCC)cc23)cc1OCC
measured: 0.995

compound: O=C(O)CCCN1C(=O)c2cccc3cccc(c23)C1=O
measured: 1.02

compound: O=C1c2ccccc2-c2cccc3cccc1c23
measured: 0.91

compound: CCCCC/C=C\C/C=C\C/C=C\C/C=C\CCCC(=O)O
measured: 0.97

compound: Cc1cc(O)c2c(c1O)C(=O)c1c(O)cc(C)c(O)c1C2=O
measured: 0.938

compound: CCC(=O)O[C@H]1CCC2C3CCc4cc(O)ccc4C3CC[C@@]21C (stereo not given in full)
measured: 0.988

compound: CC(C)(O)CC[C@@H](O)[C@](C)(O)C1CC[C@@]2(O)C3=CC(=O)C4C[C@@H](O)[C@@H](O)C[C@]4(C)C3CC[C@]12C (stereo not given in full)
measured: 1

compound: CC(=O)O[C@@H]1CC2C(C)(C)[C@H](O)C[C@H](O)[C@]2(C)C2CC[C@@]3(C)C(=CC(=O)O[C@H]3c3ccoc3)[C@@]21C (stereo not given in full)
measured: 0.963

compound: CC(=O)Oc1ccc2c(c1)CCC1C2CCC2(C)C1CC(OC(C)=O)C2OC(C)=O (stereo not given)
measured: 1.01

compound: CCCCC(=O)O[C@H]1CCC2C3CCc4cc(O)ccc4C3CC[C@@]21C (stereo not given in full)
measured: 1.02

compound: COc1ccc2ccc(=O)oc2c1CC=C(C)C
measured: 0.967

compound: O=c1[nH]cnc2nc[nH]c12
measured: 1.02

compound: CN(C)c1nc(N(C)C)nc(N(C)C)n1
measured: 0.959

compound: COc1ccc(Cc2nccc3cc(OC)c(OC)cc23)cc1OC
measured: 1

compound: Cc1cccc(N(C)C(=S)Oc2ccc3ccccc3c2)c1
measured: 1

compound: O=c1[nH]c2ccccc2n1CCCN1CCC(n2c(=O)[nH]c3cc(Cl)ccc32)CC1
measured: 0.994

compound: O=C(O)c1cccc(O)c1O
measured: 1.03

compound: COC(=O)C1=CO[C@@H](O[C@@H]2O[C@H](CO)[C@@H](O)[C@H](O)[C@H]2O)[C@@H]2[C@@H](C)[C@@H](O)C[C@H]12
measured: 0.999

compound: Cc1cc(C)nc(NS(=O)(=O)c2ccc(N)cc2)n1
measured: 0.968

compound: CCCC(=O)Nc1ncnc2c1ncn2C1O[C@@H]2COP(=O)(O)O[C@H]2[C@H]1OC(=O)CCC (stereo not given in full)
measured: 0.985

compound: O=C1c2ccc(O)c(O)c2C(=O)c2c(O)ccc(O)c21
measured: 0.816

compound: CC1(C)S[C@@H]2[C@H](NC(=O)COc3ccccc3)C(=O)N2[C@H]1C(=O)O
measured: 0.988

compound: c1coc(CNc2ncnc3nc[nH]c23)c1
measured: 1

compound: COP(=S)(OC)SCn1nnc2ccccc2c1=O
measured: 0.991

compound: Cn1c(=O)[nH]c(=O)c2[nH]cnc21
measured: 0.973
